Listed here are molecules together with their documented Ki.
Molecular target: σ2 receptors (Rattus norvegicus, UniProt Q5U3Y7)
Sequence (Q5U3Y7 1-176): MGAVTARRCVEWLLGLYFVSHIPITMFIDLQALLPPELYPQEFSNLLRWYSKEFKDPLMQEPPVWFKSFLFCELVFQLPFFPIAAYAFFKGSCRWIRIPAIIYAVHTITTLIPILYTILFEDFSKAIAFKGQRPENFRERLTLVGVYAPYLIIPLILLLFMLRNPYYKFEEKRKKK
Experiment: σ2 competition binding, [3H]DTG with
Settings: read-out: Ki at σ2 (nM) Experimental Brain/Brandel; rat brain P2, 3 nM [3H]DTG with 300 nM (+)-pentazocine, cell harvester
Where a name gives a salt, the structure may show the parent alone.
// units = nM; emit number, no label

In the examples that follow, each entry is paired with its recorded Ki.
CCCc1ccc2c(c1)sc(=O)n2CCN1CCCCCC1 [SN56]: 627
CC(C)=CCN1CCC2(C)c3cc(O)ccc3CC1C2C (single isomer, unassigned; (-)) [(−)-pentazocine]: 108

From here, focus on the item given below.
Entry c1ccc(CCN2CCCCC2)cc1 [AC927, N-phenethylpiperidine oxalate] has what Ki?
384
